Target Entity: Protein deacetylase HDAC6 (Homo sapiens) (UniProt Q9UBN7)
Sequence (Q9UBN7 whole entry): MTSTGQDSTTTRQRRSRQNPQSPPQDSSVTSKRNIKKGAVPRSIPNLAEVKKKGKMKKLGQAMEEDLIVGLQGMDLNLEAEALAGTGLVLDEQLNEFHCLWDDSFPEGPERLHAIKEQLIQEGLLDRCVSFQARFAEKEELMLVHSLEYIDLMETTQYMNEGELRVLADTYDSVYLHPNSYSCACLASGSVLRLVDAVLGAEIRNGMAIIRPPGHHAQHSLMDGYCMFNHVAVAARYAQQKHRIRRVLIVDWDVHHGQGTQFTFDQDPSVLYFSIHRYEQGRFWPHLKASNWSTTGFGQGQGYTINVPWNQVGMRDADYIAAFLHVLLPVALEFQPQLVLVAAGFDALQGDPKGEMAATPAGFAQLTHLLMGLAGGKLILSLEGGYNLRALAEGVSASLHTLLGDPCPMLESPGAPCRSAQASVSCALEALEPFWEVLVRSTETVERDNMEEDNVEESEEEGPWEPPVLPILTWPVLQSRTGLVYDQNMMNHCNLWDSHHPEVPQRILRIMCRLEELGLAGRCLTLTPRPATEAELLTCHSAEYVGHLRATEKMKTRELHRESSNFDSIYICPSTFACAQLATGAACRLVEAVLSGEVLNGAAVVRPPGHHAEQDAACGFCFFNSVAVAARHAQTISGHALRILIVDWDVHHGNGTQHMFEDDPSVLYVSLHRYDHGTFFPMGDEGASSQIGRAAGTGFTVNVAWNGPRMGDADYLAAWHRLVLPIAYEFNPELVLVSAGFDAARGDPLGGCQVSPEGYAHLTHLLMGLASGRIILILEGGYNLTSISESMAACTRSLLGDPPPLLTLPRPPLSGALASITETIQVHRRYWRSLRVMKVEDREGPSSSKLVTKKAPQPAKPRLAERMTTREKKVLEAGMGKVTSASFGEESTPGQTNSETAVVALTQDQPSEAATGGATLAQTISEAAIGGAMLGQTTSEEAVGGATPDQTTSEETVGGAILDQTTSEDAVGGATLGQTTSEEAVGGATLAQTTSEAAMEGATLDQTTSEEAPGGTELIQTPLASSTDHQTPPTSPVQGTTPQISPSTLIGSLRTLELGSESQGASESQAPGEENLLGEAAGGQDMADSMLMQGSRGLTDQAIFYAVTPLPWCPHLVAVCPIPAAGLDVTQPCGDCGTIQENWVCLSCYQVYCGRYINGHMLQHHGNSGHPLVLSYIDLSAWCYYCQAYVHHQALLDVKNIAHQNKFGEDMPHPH
Condition Details: at 10 µM
Readout Kind: inhibition (%)
Write the number in % without appending the unit.

Here's what some known entries look like.
INSERT INTO assay_data (compound, readout_kind, unit_of_measure, measured) VALUES
  ('NS(=O)(=O)c1cc2c(cc1C(F)(F)F)NC(Cc1ccccc1)NS2(=O)=O (centres undefined)', 'inhibition', '%', 36),
  ('c1ccc(-c2cnn3cc(-c4ccc(OCCN5CCOCC5)cc4)cnc23)cc1', 'inhibition', '%', 106),
  ('CN1CCN(c2ccc3nc(-c4c(N)c5c(F)cccc5[nH]c4=O)[nH]c3c2)CC1', 'inhibition', '%', 63),
  ('Cn1ccc2cc3c(cc21)CCN3C(=O)Nc1cccnc1', 'inhibition', '%', 111),
  ('c1ccc2c(c1)CCC[C@H]2Nc1nc2ccccc2[nH]1', 'inhibition', '%', 95.8);

input: Reported inhibition, compound `CCC(CC)(CC(=O)Nc1cccc(/C=C/c2nc(C3CCC3)cs2)c1)C(=O)O` : ____
output: 36.2

input: Now consider `CN(C)C(=O)Nc1cccc(-c2ccc(N(C)C)cc2)c1` and answer again.
output: 96.2

input: Now consider O=c1c(O)c(-c2cc(O)c(O)c(O)c2)oc2cc(O)cc(O)c12 [MYRICETIN] and answer again.
output: 94

input: Now consider `Oc1ccc(-c2nc3cc(O)cc(Br)c3o2)cc1` and answer again.
output: 100

input: Now consider c1ccc2[nH]c(-c3cscn3)nc2c1 [THIABENDAZOLE] and answer again.
output: 99.5

input: Now consider OCCN1CCN(CCCN2c3ccccc3Sc3ccc(C(F)(F)F)cc32)CC1 [FLUPHENAZINE] and answer again.
output: 75.7

input: Now consider `Nc1cc2c3ccccc3ccc2c2ccccc12` and answer again.
output: 24.2

====

Here's a batch of compounds along with measured IC50 for UniProtKB Q9UBN7.
Structures can show the parent of a compound that is named as a salt.
Write the number in nM without appending the unit.

Here's what some known entries look like.
INSERT INTO measurements (compound, target_entity, readout_kind, unit_of_measure, measured) VALUES
  ('CCCCCCOc1ccccc1C(N)=O [EXALAMIDE]', 'UniProtKB Q9UBN7', 'IC50', 'nM', 1400),
  ('O=c1sn(-c2cccc3ccccc23)c(=O)n1Cc1ccccc1 [TIDEGLUSIB]', 'UniProtKB Q9UBN7', 'IC50', 'nM', 993),
  ('Cc1ccc(-c2cn3c4c(sc3n2)CCCC4)cc1', 'UniProtKB Q9UBN7', 'IC50', 'nM', 1130),
  ('CNC(=O)c1ccccc1Sc1ccc2c(/C=C/c3ccccn3)n[nH]c2c1 [AXITINIB]', 'UniProtKB Q9UBN7', 'IC50', 'nM', 404),
  ('Cc1ccc(NCCCc2ccccc2)c(N)c1', 'UniProtKB Q9UBN7', 'IC50', 'nM', 837);

input: Reported IC50, compound CN(C)CCOC1=Cc2ccccc2Sc2ccc(Cl)cc21 [ZOTEPINE] : ____
output: 602

input: Now consider `NC(=O)c1sc(-c2ccsc2)cc1N` and answer again.
output: 3100

input: Now consider `O=C(NO)c1ccc2[nH]c(=O)c(CCCc3ccccc3)nc2c1` and answer again.
output: 1.55

input: Now consider O=C(CCCCCCC(=O)Nc1cccnc1)NO [PYROXAMIDE] and answer again.
output: 20

input: Now consider CN(C)CCCSc1ccccc1NC(=O)/C=C/c1ccccc1 [CINANSERIN HYDROCHLORIDE] and answer again.
output: 805

Source: ChEMBL document CHEMBL4808148
